# Test system: MS2 coat protein
# EXPERIMENT NOTES: apparent KD of MS2 coat protein; higher = weaker reporter binding
# RECORDED CONDITIONS: Eterna round: R107; input ligand: theophylline 20 uM
Answer No if apparent KD of MS2 coat protein is under 100 nM, and Yes if it is 100 nM or more.

CAUGCCAGGGCGGCCGCCACUGUGGCUACGGUACAUGAGGAUCACCCAUGUUUGUGGUUGAUCUACAGGACCGGGCCCUAGCACG [Anananenes] :: Yes
GUCCUCAGCCGAAGGAGCGCUAGAAGAUGACAUGAGGAUCACCCAUGUGUGUGAUGUGGCUAGCAGGUAGGUCGCGGAGAGGAUU [Exclusion - Arginine B (Freestyle 16)] :: No
UCGCUCUGGGUGAGAUCCGGAGAUGUGGAAGGAGCGCUGGAAACAGCAGGUAGGUCGCCAACGGACAUGAGGAUCACCCAUGUAC [Same State - Arginine A (Freestyle 19)] :: No

Prompt: I'd appreciate it if you could say whether AUAUAUACAUGAGGAUCACCCAUGUUAUUUCGAGGACCGGUACGGCCGCCACUCGAUAGAGUAGAAGUAACAUGUGUUAGUUGAU [JR_SSTryptoA_Sub014] has apparent KD of MS2 coat protein at least equal to 100 nM.
Response: No

Prompt: I'd appreciate it if you could say whether UUUGGCGGCGAUCUGGGUUUCCCAGAUCGGCGAGGACCGGUACGGCCGCCACUCGUGUUUCUUUGACAUGAGGAUCACCCAUGUA [whbob_SS_trypto A_f4] has apparent KD of MS2 coat protein at least equal to 100 nM.
Response: No

Prompt: I'd appreciate it if you could say whether GGGAUAUCCCGAAGGAGCGCGAGAUGCUGUGCUGCAUUCCUCACAUGAGGAUCACCCAUGUCGCAGGUAGGUCGCGGGAUAUCCC [#16 Exclusion - Arginine B] has apparent KD of MS2 coat protein at least equal to 100 nM.
Response: Yes

Prompt: I'd appreciate it if you could say whether GGGUAAGAUCCGGAUACCAGCGAACAUGAGGAUCACCCAUGUGACCUAAGAUAGGCUAAACGCCCUUGGCAGCCGAGAUAGCGUU [Same State Theophylline B GF 6] has apparent KD of MS2 coat protein at least equal to 100 nM.
Response: No

Prompt: I'd appreciate it if you could say whether AACGUAUACAGAAGGAGCGUGAUUUAUAUUUCUUUAACAUAUACAUGAGGAUCACCCAUGUCACAGGUAGGUCGCUGUAUUCGUA [JR_ExcArginiB_Sub023] has apparent KD of MS2 coat protein at least equal to 100 nM.
Response: No

Prompt: I'd appreciate it if you could say whether UGUAUGGACUGAAGGAGCGGAAAAUAAACCUGAGGAUCACCCGGGUAAUAGGCGAAAGCCAUCCAGGUAGGUCGCAGUCCAUACU has apparent KD of MS2 coat protein at least equal to 100 nM.
Response: Yes

Prompt: I'd appreciate it if you could say whether CUAAGAGCGGCGGCCGCCACUGGUAACCGAGAGGAGGAGCCUCUGACAUGAGGAUCACCCAUGUUCAGGACCGGGUCGUCUUAGA [#06 Same State - Tryptophan B] has apparent KD of MS2 coat protein at least equal to 100 nM.
Response: No

// data source = the supplement of paper PMC9170038
